test: Bioanalysis of brain and plasma samples (exposure, UPLC-MS/MS); format: in vivo, rat; conditions: male, Sprague Dawley, po; Brain Rat, 30 mg/kg p.o., 3 hours post dose; read-out: Exp
endpoint: concentration at 3 h (ng/g)

1: [2H]C([2H])([2H])Oc1ccc(C(=O)Nc2ccc(F)c([C@@]3(C)N=C(N)[C@@](C)(F)C[C@@H]3F)c2)nc1
2: COc1ccc(C(=O)Nc2ccc(F)c([C@@]3(C)N=C(N)[C@@](C)(F)C[C@@H]3F)c2)nc1
## Task API: POST /compare with 1 and 2 ; response names the item with higher concentration at 3 h. Answer by stating the label of the chosen item.
## Result 1
(1: 2770 ng/g, 2: 1510 ng/g)

###

Entries with reported Ki on BACE1 (Homo sapiens (Human), UniProt P56817)
Sequence (P56817 46-501): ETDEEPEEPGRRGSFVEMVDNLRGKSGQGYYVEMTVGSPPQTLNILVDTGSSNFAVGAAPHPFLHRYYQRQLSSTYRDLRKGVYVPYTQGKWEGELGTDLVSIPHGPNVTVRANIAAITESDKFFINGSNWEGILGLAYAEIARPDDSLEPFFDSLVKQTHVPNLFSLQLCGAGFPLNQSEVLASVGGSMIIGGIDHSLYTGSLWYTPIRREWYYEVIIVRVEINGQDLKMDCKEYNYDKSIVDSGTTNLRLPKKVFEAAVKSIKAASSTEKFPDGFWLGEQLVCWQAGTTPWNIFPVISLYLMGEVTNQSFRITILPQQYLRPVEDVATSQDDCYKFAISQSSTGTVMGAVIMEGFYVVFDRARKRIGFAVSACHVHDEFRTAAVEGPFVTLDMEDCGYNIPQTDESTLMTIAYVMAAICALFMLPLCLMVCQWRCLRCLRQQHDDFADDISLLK
endpoint: Ki (nM)

The following molecules have reported results that may help.
In [3]: df
Out[3]:
                            molecularstring  unitname  numericreadout
0  C[C@@]1(F)C[C@H](F)[C@@](C)(c2cc(NC(=O)c3coc(C(F)F)n3)ccc2F)N=C1N        nM              62
1  C[C@@]1(F)C[C@H](F)[C@@](C)(c2cc(NC(=O)c3ccc(Cl)cc3)ccc2F)N=C1N        nM             220
2  C[C@@]1(F)C[C@H](F)[C@@](C)(c2cc(NC(=O)c3cnc(C(F)F)cn3)ccc2F)N=C1N        nM             100
3  Cc1cc(C#N)cnc1C(=O)Nc1ccc(F)c([C@@]2(C)N=C(N)[C@@](C)(F)C[C@@H]2F)c1        nM             4.1
4  [2H]C([2H])([2H])Oc1ccc(C(=O)Nc2cc(F)c(F)c([C@@]3(C)N=C(N)[C@](C)(F)C[C@@H]3F)c2)nc1        nM             6.8

A: COc1ccc(C(=O)Nc2ccc(F)c([C@@]3(C)N=C(N)[C@](C)(F)C[C@@H]3F)c2)nc1
B: [2H]C([2H])([2H])Oc1ccc(C(=O)Nc2cc(F)c(F)c([C@@]3(C)N=C(N)[C@@](C)(F)C[C@@H]3F)c2)nc1
## Task API: POST /compare with A and B ; response names the item with higher Ki. Answer by stating the label of the chosen item.
## Result A

###

molecular target: UniProtKB P56817
pKi: −log10 of the molar value.
endpoint: pKi

In [3]: df
Out[3]:
                            molecularstring  numericreadout
0  Cc1nc(C(=O)Nc2ccc(F)c([C@@]3(C)N=C(N)[C@](C)(F)C[C@@H]3F)c2)co1            7.24

A: COc1cnc(C(=O)Nc2ccc(F)c([C@@]3(C)N=C(N)[C@](C)(F)C[C@@H]3F)c2)cn1
B: C[C@@]1(F)C[C@H](F)[C@@](C)(c2cc(NC(=O)c3cnc(C(F)(F)F)cn3)ccc2F)N=C1N
C: [2H]C([2H])([2H])Oc1ccc(C(=O)Nc2ccc(F)c([C@@]3(C)N=C(N)[C@@](C)(F)C[C@H]3F)c2)nc1
## Task Hi! Can you put these in order of pKi, lowest number first? Submit the labels in the order that the ranking request calls for.
## Result B, C, A
(B: 6.72, C: 7.09, A: 7.29)
